A collection of molecules and their measured pEC50
tested on: NCI-H146 cancer cells; experiment: Cancer cell viability by MTS, 72 h, NCI-H146; format: cell-based; conditions: Homo sapiens
pEC50: −log10 of the molar value.

molecule | censoring.operator | pEC50
CC1(C)CCC(c2ccc(Cl)cc2)=C(CN2CCN(c3ccc(C(=O)NS(=O)(=O)c4ccc(N[C@H](CCN5CCN(C(=S)NCCOCCOCCNc6cccc7c6C(=O)N(C6CCC(=O)NC6=O)C7=O)CC5)CSc5ccccc5)c(S(=O)(=O)C(F)(F)F)c4)cc3)CC2)C1 (stereo partly shown) | = | 6.29
Cc1ncsc1-c1ccc(CNC(=O)[C@@H]2C[C@@H](O)CN2C(=O)[C@@H](NC(=O)COCCOCCOCc2cn(CCCC(=O)N3CCN(CC#Cc4ccc(OCCCc5sc(N6CCc7cccc(C(=O)Nc8nc9ccccc9s8)c7C6)nc5C(=O)O)c(F)c4)CC3)nn2)C(C)(C)C)cc1 | < | 5.70
CC1(C)CCC(c2ccc(Cl)cc2)=C(CN2CCN(c3ccc(C(=O)NS(=O)(=O)c4ccc(N[C@H](CCN5CCOCC5)CSc5ccccc5)c(S(=O)(=O)C(F)(F)F)c4)cc3)CC2)C1 [ABT-263, navitoclax, reference compound] | = | 7.56
CC1(C)CCC(c2ccc(Cl)cc2)=C(CN2CCN(c3ccc(C(=O)NS(=O)(=O)c4ccc(N[C@H](CCN5CCN(C(=O)CCCn6cc(COCCOCCOCCNc7cccc8c7C(=O)N(C7CCC(=O)NC7=O)C8=O)nn6)CC5)CSc5ccccc5)c(S(=O)(=O)C(F)(F)F)c4)cc3)CC2)C1 (stereo partly shown) | = | 7.16
